target: furin, P09958; assay: furin cleavage Z-score vs untreated control; higher = more cleavage, active = 3.5 or more, inactive = 1 or less, 8 variable residues between constant flanks; conditions: 15 min;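 also: purified furin at 1:10 enzyme:substrate in 50 mM HEPES pH 7.5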
Sequence (P09958 whole entry): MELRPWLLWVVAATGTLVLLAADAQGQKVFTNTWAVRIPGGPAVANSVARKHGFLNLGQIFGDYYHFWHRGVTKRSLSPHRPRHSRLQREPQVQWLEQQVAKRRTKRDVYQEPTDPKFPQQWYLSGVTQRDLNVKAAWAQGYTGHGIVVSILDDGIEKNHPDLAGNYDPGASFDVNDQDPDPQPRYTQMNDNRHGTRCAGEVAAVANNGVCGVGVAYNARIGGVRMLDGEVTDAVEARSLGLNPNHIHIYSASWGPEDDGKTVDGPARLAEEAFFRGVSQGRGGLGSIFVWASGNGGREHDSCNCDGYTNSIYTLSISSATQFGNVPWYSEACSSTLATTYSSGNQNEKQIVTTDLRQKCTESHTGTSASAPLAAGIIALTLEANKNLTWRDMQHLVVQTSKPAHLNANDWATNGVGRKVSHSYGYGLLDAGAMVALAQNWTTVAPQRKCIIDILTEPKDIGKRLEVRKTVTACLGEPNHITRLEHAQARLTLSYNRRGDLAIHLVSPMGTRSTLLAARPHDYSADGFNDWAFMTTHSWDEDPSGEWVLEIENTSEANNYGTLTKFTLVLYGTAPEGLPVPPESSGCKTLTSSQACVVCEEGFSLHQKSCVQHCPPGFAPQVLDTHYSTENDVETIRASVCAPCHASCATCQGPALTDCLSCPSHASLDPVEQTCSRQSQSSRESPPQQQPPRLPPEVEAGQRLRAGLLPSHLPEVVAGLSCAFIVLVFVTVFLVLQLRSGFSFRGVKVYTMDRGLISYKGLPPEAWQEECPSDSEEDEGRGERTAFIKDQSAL
The other results are listed elsewhere or left out. How many sequences the whole screen found active is unknown.
Select the matching outcome among TRUE (active), FALSE (inactive)

How did this test come out for CARPKRKVAPAGNASASA [FS-2284] ?
FALSE

Likewise for CARSKRQLRRAGNASASA [FS-2305] ?
TRUE

Lookup CAALSRPRRLAGNASASA [FS-749]
TRUE

Next: CATERLYVGGAGNASASA [HC1499]
FALSE

Continuing:
Write down the call the test reported for this sequence. Item: CAYPVREKKDAGNASASA [FS-739]
FALSE
